Here, each record is paired with measured GI50 data.
Tested on: EKVX
test: NCI tumour cell line growth inhibition, 48 h
Calls of active or inactive are those of the source. Rule as the data show it: active = GI50 up to about 1.1 µM and inactive = higher.

compound	GI50
O=c1oc2ccccc2c(-c2ccc(O)cc2)c1Oc1ccc(Cl)cc1	16.8 µM (inactive)
c1ccc2c(c1)cc1n2CCc2c-1[nH]c1ccccc21	> 10 µM (inactive)
CNNC1=NS(=O)(=O)c2cc(C)c(Cl)cc2S1	> 10 µM (inactive)
Cc1c(O)c(=O)ccn1CCc1ccc(O)cc1	20.4 µM (inactive)
Cc1ccccc1C1SCc2nc3ccccc3n21 (stereo unspecified)	> 100 µM (inactive)
Cc1cc2c(nn1)-c1ccccc1C2=O	> 10 µM (inactive)
CC12CCCC(C(=O)O)(C1)[C@H](C(C)(C)C(=O)O)CC2 (stereo partly specified)	> 100 µM (inactive)
COc1ccc(C[P+]2(c3ccccc3)CCCCC2)cc1.O=[N+]([O-])c1ccc(C[P+]2(c3ccccc3)CCCCC2)cc1.[O-][Cl+3]([O-])([O-])[O-].[O-][Cl+3]([O-])([O-])[O-]	> 100 µM (inactive)
CN(C)CCSc1cc(-c2ccccc2)c2ccccc2n1	15.7 µM (inactive)
CC(=O)NC(NCCN)(c1ccccc1)c1ccccc1	> 100 µM (inactive)
CCCCOP1(=O)CC(C)=C(Cl)C(C)(OC)C1 (stereo unspecified)	> 100 µM (inactive)

----------
System: M19-MEL
test: NCI tumour cell line growth inhibition, 48 h
The source made the active and inactive calls. No stated cut-off is given here; in the data, active = GI50 up to about 1.1 µM and inactive = higher.
recorded-metric: GI50

                                    compound  tested_target  experimental_result
 0  CCN(CC)CCC(=O)N1C/C(=C/c2ccccc2)C(=O)/C(=C\c2ccccc2)C1        M19-MEL   1.39 µM (inactive)
 1  Clc1ccc2c(c1)C1C(CO2)C(c2ccccc2)=NN1c1ccccc1 (stereo not drawn)        M19-MEL   26.5 µM (inactive)
 2  O=C(Nc1ccc(Cl)cc1)C1C(=O)C(=O)N(c2ccc(Cl)cc2)C1=O (stereo not drawn)        M19-MEL  > 100 µM (inactive)
 3        O=C1C(CO)=C[C@H](O)[C@H]2O[C@@H]12        M19-MEL    120 µM (inactive)
 4  CCCCCCCCCCCCCC(=O)OC(/C=C/C(C)C)C(O)C(O)C(OC)C(=O)NC1CCCCN(C)C1=O (stereo not drawn)        M19-MEL   3.48 µM (inactive)
 5  O=C(NC12CC3CC(CC(C3)C1)C2)C(=O)c1c[nH]c2ccccc12        M19-MEL   18.7 µM (inactive)
 6  COc1ccc2c(=O)c([Se]c3coc4cc(OC)ccc4c3=O)coc2c1        M19-MEL   28.3 µM (inactive)
 7  O=C(CC1C(=O)c2ccccc2C1=C1C(=O)c2ccccc2C1=O)c1ccccc1 (stereo not drawn)        M19-MEL   78.9 µM (inactive)
 8  O=C1CCC2(c3ccc(F)cc3)Nc3ccccc3N12 (stereo not drawn)        M19-MEL  > 100 µM (inactive)
 9  CC1=C(SC#N)S(=O)(=O)N(c2ccccc2)C(C)=C1SC#N        M19-MEL   29.5 µM (inactive)
10  C/C(CN1C(=O)c2ccccc2C1=O)=N\NS(=O)(=O)c1ccccc1        M19-MEL  > 100 µM (inactive)
11  Cc1n(-c2ccccc2)c2c([n+]1Cc1ccc([N+](=O)[O-])cc1)C(=O)c1ccccc1C2=O        M19-MEL   1.16 µM (inactive)
12  CC(C(=O)O)c1cnn(-c2ccccc2)c1-n1cccc1 (stereo not drawn)        M19-MEL  > 100 µM (inactive)
13  COc1cc2cc[n+]3c(C)c4cc(OC)c(OC)cc4c([O-])c3c2cc1OC        M19-MEL   46.6 µM (inactive)
14  CC12Oc3ccc4ccccc4c3CC1Cc1c(ccc3ccccc13)O2 (stereo not drawn)        M19-MEL  > 100 µM (inactive)
15  O=C(N/C(=C\c1ccc([N+](=O)[O-])cc1)c1nc2ccccc2s1)c1ccccc1        M19-MEL   22.9 µM (inactive)
16  CCOC(=O)C1Cc2ccc3c4c(ccc(c24)C1)CC(C(=O)OCC)C3        M19-MEL  > 100 µM (inactive)
17  O=C(O)C1CC2CC(=O)C1C2 (stereo not drawn)        M19-MEL  > 100 µM (inactive)

FYI, the data here is from ChEMBL document CHEMBL1201862.
